- Assay Target: α5β3γ2 GABAA receptors (Ltk cell membranes) (Homo sapiens, UniProt P18507+P31644)
- Construct: membranes
- Sequence (P31644 32-462): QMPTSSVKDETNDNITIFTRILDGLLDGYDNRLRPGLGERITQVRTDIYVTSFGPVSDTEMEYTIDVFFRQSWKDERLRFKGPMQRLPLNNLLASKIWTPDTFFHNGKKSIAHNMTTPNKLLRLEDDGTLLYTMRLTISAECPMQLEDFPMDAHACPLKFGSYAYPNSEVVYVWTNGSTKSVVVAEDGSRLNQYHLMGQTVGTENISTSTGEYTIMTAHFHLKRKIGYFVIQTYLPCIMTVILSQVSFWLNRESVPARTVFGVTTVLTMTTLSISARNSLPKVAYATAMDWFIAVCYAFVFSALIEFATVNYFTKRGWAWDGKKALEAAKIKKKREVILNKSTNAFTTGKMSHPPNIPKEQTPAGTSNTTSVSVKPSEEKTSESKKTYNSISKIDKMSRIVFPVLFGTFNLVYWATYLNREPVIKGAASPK
- Sequence (P28472 26-473 partner): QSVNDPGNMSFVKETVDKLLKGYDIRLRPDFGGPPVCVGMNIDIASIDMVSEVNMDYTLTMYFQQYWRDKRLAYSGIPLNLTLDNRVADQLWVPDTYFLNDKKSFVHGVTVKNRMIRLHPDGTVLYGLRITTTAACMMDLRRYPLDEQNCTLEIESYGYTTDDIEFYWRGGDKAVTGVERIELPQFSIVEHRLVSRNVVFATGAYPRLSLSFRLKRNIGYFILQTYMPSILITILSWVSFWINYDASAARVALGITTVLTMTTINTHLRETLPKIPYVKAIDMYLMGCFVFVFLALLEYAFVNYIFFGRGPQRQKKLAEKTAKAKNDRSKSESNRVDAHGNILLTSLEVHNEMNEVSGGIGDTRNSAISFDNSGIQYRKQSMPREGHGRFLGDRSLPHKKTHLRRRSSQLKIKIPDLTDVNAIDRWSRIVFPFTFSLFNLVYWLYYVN
- Sequence (P18507 40-475): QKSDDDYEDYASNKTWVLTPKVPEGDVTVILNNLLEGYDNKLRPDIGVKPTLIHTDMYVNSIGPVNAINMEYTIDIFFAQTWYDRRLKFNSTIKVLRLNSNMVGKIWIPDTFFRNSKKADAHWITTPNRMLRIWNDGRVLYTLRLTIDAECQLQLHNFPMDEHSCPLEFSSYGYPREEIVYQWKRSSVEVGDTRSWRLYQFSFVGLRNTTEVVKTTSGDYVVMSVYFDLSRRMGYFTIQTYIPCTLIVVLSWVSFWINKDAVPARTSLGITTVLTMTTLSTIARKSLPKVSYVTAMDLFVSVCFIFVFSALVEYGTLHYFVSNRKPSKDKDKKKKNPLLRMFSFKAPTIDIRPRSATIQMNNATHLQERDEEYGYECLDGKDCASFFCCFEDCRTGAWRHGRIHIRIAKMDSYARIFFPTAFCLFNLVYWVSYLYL
- Test Protocol: Binding activity of test compounds on GABAAR: inhibition of [3H]Ro15-1788 binding
- Recorded Conditions: GABA α5 Binding Ki Values, inhibition of [3H]Ro15-1788 binding; reported as ranges
- Procedure: Tissue culture and Membrane Preparation: The binding was performed on Ltk cells stably expressing GABAA receptors: α1β1γ2, α2β3γ2, α3β3γ2 and α5β3γ2 (provided by Merck Co., NJ, USA). Cells were seeded in 100 mm culture plates in DMEM/F12 medium containing 10% serum and antibiotics in 5% CO2 and allowed to grow for 1-2 days. […] Protein content was determined using BCA assay (Bio-Rad Labs, Reinach, Switzerland) with Bovine Serum Albumin (Sigma Aldrich, St. Louis, Mo., USA) as the standard. […]
Experimental Endpoint: Ki

Quick check: Ki of COCc1nnc2n1Cc1c(C3=N[C@@H](c4ccccc4)CO3)ncn1-c1ccc(Cl)cc1-2 [Compound 264] ?
< 100 nM

And the next one, CC(C)c1nc(-c2ncn3c2Cn2c(COc4cccc(F)c4)nnc2-c2cc(F)ccc2-3)no1 [Compound 188] ?
< 100 nM

What do you have for COc1ccc2c(c1)-n1nnc(/C=C/c3ccccc3)c1Cc1c(C#N)ncn1-2 [Compound 262] ?
> 1000 nM

One more compound: COCc1nnc2n1Cc1c(C3=N[C@@H](c4cccc5ccccc45)CO3)ncn1-c1ccc(Cl)cc1-2 [Compound 338]
< 100 nM

Another compound to check: COc1ccc2c(c1)-n1nncc1Cc1c(C#CCc3ccccc3OC(F)(F)F)ncn1-2 [Compound 420]
< 100 nM

Further, for Cc1nnn2c1Cc1c(-c3noc(C(F)(F)F)n3)ncn1-c1ccc(F)cc1-2 [Compound 150] ?
< 100 nM

Try Cc1nnn2c1Cc1c(C(=O)OC(C)C)ncn1-c1ccccc1-2 [Compound 153] next.
< 100 nM

Same question, CCOC(=O)c1ncn2c1Cn1c(COc3ccccc3)nnc1-c1cc(OC)ccc1-2 [Compound 55] this time
< 100 nM

Do the same for COc1ccc2c(c1)-n1nncc1Cc1c(-c3nc(-c4ccccc4)co3)ncn1-2 [Compound 388] please
< 100 nM

Further, for Cc1ncn2c1Cc1c(C)nnn1-c1cc(F)ccc1-2 [Compound 135] ?
> 1000 nM

What do we get for O=C(C#Cc1ncn2c1Cc1cnnn1-c1cc(Cl)ccc1-2)c1ccccc1 [Compound 448] ?
< 100 nM

Also check Cc1coc(-c2ncn3c2Cn2c(COCC(F)(F)F)nnc2-c2cc(Cl)ccc2-3)n1 [Compound 312]
100 to 1000 nM

Also FC(F)(F)COCc1nnc2n1Cc1c(C3=N[C@@H](c4ccccc4)CO3)ncn1-c1ccc(Cl)cc1-2 [Compound 304] ?
< 100 nM

Try the compound COCc1nnc2n1Cc1c(-c3nc(C)co3)ncn1-c1ccc(Cl)cc1-2 [Compound 244]
< 100 nM

Repeat for the following compound: COCc1nnc2n1Cc1c(C3=NCCO3)ncn1-c1ccc(C(F)(F)F)cc1-2 [Compound 470]
100 to 1000 nM

Then what about the compound COc1ccc2c(c1)-c1nnc(COc3ccccc3)n1Cc1c(-c3nc(C)no3)ncn1-2 [Compound 118] ?
< 100 nM

Further, for COCc1nnc2n1Cc1c(-c3nc(-c4ccc(F)cc4)co3)ncn1-c1ccc(Cl)cc1-2 [Compound 324] ?
< 100 nM

// next record CCc1nc(-c2ncn3c2Cc2c(Cc4ccc(F)cc4)nnn2-c2cc(OC)ccc2-3)no1 [Compound 195]
< 100 nM

Ok, now Cc1nnn2c1Cc1c(-c3ccccc3)ncn1-c1ccc(F)cc1-2 [Compound 139]
100 to 1000 nM

Next record, please: COCc1nnc2n1Cc1c(C#Cc3ccccc3)ncn1-c1ccc(Cl)cc1-2 [Compound 285]
< 100 nM

Can you check CCOC(=O)c1ncn2c1Cc1c(Cc3ccccc3)cnn1-c1cc(OC)ccc1-2 [Compound 8] next?
< 100 nM

Can you handle COCc1nnc2n1Cc1c(C3=NCCO3)ncn1-c1ccc(Cl)cc1-2 [Compound 238] next?
< 100 nM

What do you have for CC(C)OC(=O)c1ncn2c1Cn1c(COc3ccccc3)nnc1-c1cc(F)ccc1-2 [Compound 156] ?
< 100 nM

Also COCc1nnc2n1Cc1c(C#CCc3ccccc3)ncn1-c1ccc(Cl)cc1-2 [Compound 346] ?
< 100 nM

Cc1nnn2c1Cc1c(-c3noc(C(C)C)n3)ncn1-c1ccccc1-2 [Compound 133] , same question.
< 100 nM

For COc1ccc2c(c1)-n1nncc1Cc1c(C3=N[C@@H](c4ccc(Cl)cc4)CO3)ncn1-2 [Compound 368] then?
< 100 nM

How about this compound: COc1ccc2c(c1)-n1nnc(C)c1Cc1c(-c3nc(C(C)C)no3)ncn1-2 [Compound 277]
< 100 nM

Try the compound CCOCc1nnc2n1Cc1c(C3=NC(C)CO3)ncn1-c1ccc(Cl)cc1-2 (stereo not drawn) [Compound 259]
< 100 nM

Then COCc1nnc2n1Cc1c(C3=N[C@@H](c4ccccc4)CO3)ncn1-c1ccc(OC)cc1-2 [Compound 343] ?
< 100 nM

Next up: COc1ccc2c(c1)-n1nncc1Cc1c(C3=N[C@@H](c4ccc(Cl)cc4Cl)CO3)ncn1-2 [Compound 374]
100 to 1000 nM

// query: COCc1nnc2n1Cc1c(-c3noc(C(C)C)n3)ncn1-c1ccc(OC)cc1-2 [Compound 169]
< 100 nM

Also COc1ccc2c(c1)-n1nnc(CN3CCCCC3)c1Cc1c(C#N)ncn1-2 [Compound 251] , if possible.
> 1000 nM

And then C#Cc1ncn2c1Cn1c(COC)nnc1-c1cc(OC)ccc1-2 [Compound 328] , what is it?
< 100 nM

---

- Assay Target: α5β3γ2 GABAA receptors (Ltk cell membranes) (Homo sapiens, UniProt P18507+P31644)
- Construct: membranes
- Test Protocol: Binding activity of test compounds on GABAAR: inhibition of [3H]Ro15-1788 binding
- Recorded Conditions: GABA α5 Binding Ki Values, inhibition of [3H]Ro15-1788 binding; reported as ranges
pKi: −log10 of the molar value.
Can you tell me pKi for the items I'm about to list?

Reported pKi, molecule `Cc1cc(-c2ncn3c2Cn2c(COC(C)C)nnc2-c2cc(Cl)ccc2-3)on1` : ____
6.00 to 7.00

And the next one, `C#Cc1ncn2c1Cn1c(COC(C)C)nnc1-c1cc(Cl)ccc1-2` ?
> 7.00

Same read-out for `COc1ccc2c(c1)-n1nncc1Cc1c(C#Cc3ccccc3C)ncn1-2` ?
> 7.00

Check `COc1cccc(C#Cc2ncn3c2Cc2cnnn2-c2cc(OC)ccc2-3)c1` too.
> 7.00

Okay, and `COc1ccc2c(c1)-n1nnc(Cc3cccnc3)c1Cc1c(C#N)ncn1-2` ?
> 7.00

Field entry: `CC(C)c1nc(-c2ncn3c2Cn2c(COc4cccnc4)nnc2-c2cc(F)ccc2-3)no1`
> 7.00

// repeat for `CC(C)c1nc(-c2ncn3c2Cc2c(Cc4ccc(F)cc4)nnn2-c2ccc(F)cc2-3)no1` and report
< 6.00

Try this molecule next: `COCc1nnc2n1Cc1c(C#CC(=O)c3ccccc3)ncn1-c1ccc(Cl)cc1-2`
> 7.00

Then this molecule: `CC(C)c1noc(-c2ncn3c2Cc2cnnn2-c2cc(Cl)ccc2-3)n1`
> 7.00

Here is the next molecule: `COc1ccc(C#Cc2ncn3c2Cc2cnnn2-c2cc(OC)ccc2-3)cc1`
> 7.00

And then `N#Cc1ncn2c1Cc1c(COc3cccc(F)c3)nnn1-c1cc(Cl)ccc1-2` , what is it?
> 7.00

Now consider `Cc1cc(-c2ncn3c2Cc2c(C)nnn2-c2cc(F)ccc2-3)ccn1` and answer again.
< 6.00

Also `COc1ccc2c(c1)-n1nncc1Cc1c(-c3nc(-c4ccc(C(F)(F)F)cc4)co3)ncn1-2` ?
< 6.00

Follow-up item: `COc1ccc2c(c1)-n1nncc1Cc1c(C3=N[C@@H](c4cc(F)ccc4F)CO3)ncn1-2`
> 7.00

Would you mind doing `COCc1nnc2n1Cc1c(-c3ncc(C)o3)ncn1-c1ccc(Cl)cc1-2` as well?
> 7.00

Moving on to the next molecule: `COCc1nnc2n1Cc1c(-c3nc(C)no3)ncn1-c1ccc(Br)cc1-2`
> 7.00

Entry `COc1ccc2c(c1)-n1nncc1Cc1c(C3=N[C@H](C)CO3)ncn1-2` please
> 7.00

// same read-out, input: `COc1ccc2c(c1)-n1nncc1Cc1c(C#Cc3ccccc3)ncn1-2`
> 7.00

Again, but for `CCC#Cc1ncn2c1Cn1c(COC)nnc1-c1cc(Cl)ccc1-2`
> 7.00

What would you report for `COc1ccc2c(c1)-n1nncc1Cc1c(C#Cc3ccccn3)ncn1-2` ?
> 7.00

Try `COCc1nnc2n1Cc1c(C#CCc3cccc(F)c3)ncn1-c1ccc(Cl)cc1-2` next.
> 7.00

And `Clc1ccc2c(c1)-n1nncc1Cc1c(C#Cc3cccnc3)ncn1-2` ?
> 7.00

Would you kindly repeat that for `COc1ccc2c(c1)-n1nncc1Cc1c(-c3nc(-c4cccc(C(F)(F)F)c4)co3)ncn1-2` ?
< 6.00

// query: `Fc1ccc2c(c1)-c1nnc(COc3ccccc3)n1Cc1c(-c3noc(C(F)(F)F)n3)ncn1-2`
> 7.00

Next molecule up: `Clc1ccc2c(c1)-n1nncc1Cc1c(-c3nc(-c4ccccc4)co3)ncn1-2`
> 7.00

And the next one, `CCOC(=O)c1ncn2c1Cn1c(COCC(F)(F)F)nnc1-c1cc(Cl)ccc1-2` ?
> 7.00

Same question, `COCc1nnc2n1Cc1c(COc3ccccn3)ncn1-c1ccc(Cl)cc1-2` this time
6.00 to 7.00

Repeat for the following molecule: `CCOCc1ncn2c1Cc1c(COCC)nnn1-c1ccccc1-2`
6.00 to 7.00

Thanks! And `Cc1cnc(-c2ncn3c2Cc2c(C)nnn2-c2cc(F)ccc2-3)nc1` ?
6.00 to 7.00

What would you report for `COc1ccc2c(c1)-c1nnc(COc3cccnc3)n1Cc1c(-c3noc(C(C)C)n3)ncn1-2` ?
> 7.00

Entry to check: `COc1ccc2c(c1)-n1nncc1Cc1c(C#CC(C)C)ncn1-2`
> 7.00

And the next one, `CC#Cc1ncn2c1Cn1c(COCc3ccccc3)nnc1-c1cc(Cl)ccc1-2` ?
6.00 to 7.00

Request: `COCc1nnc2n1Cc1c(C#Cc3ccccc3C)ncn1-c1ccc(Cl)cc1-2`
> 7.00

Thanks! And `COCc1nnc2n1Cc1c(C3=N[C@@H](C(C)C)CO3)ncn1-c1ccc(Cl)cc1-2` ?
6.00 to 7.00
